src = patent US12180193B2

Target: BRAF G466V (Homo sapiens, UniProt P15056, G466V)
Construct: expressed in transfected cells
Sequence (P15056 whole entry G466V): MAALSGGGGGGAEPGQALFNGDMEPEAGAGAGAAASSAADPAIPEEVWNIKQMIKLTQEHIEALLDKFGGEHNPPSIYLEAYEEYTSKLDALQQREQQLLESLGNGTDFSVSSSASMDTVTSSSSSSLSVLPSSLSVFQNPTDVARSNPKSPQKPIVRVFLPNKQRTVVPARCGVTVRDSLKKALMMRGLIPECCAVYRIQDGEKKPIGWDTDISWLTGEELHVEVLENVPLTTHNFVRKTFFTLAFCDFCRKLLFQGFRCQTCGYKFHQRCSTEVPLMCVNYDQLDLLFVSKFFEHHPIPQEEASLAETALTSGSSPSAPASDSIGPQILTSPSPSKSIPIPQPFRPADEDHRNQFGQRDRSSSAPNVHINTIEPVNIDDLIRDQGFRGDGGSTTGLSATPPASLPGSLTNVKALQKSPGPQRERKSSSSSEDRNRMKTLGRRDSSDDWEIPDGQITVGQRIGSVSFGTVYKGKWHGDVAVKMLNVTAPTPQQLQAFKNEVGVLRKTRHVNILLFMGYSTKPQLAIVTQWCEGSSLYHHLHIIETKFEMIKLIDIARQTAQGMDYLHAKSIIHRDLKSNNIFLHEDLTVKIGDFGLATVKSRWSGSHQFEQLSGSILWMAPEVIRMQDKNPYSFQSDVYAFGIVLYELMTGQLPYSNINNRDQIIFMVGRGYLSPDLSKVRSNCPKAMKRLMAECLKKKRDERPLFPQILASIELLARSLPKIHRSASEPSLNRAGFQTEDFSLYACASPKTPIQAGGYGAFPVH
Assay: Cellular assay of target protein degradation, T-Rex 293 cells stably transfected with HA-BRAF G466V (HA immunofluorescence, high content imaging)
Type: cell-based
Conditions: maximum degradation observed, T-Rex 293 HA-BRAF G466V
READOUT_TYPE: Dmax

{"MOLECULE": "O=C1CC[C@@H](NC(=O)c2ccc(N3CCC(CN4CCN(c5ccc(-c6cnc7[nH]cc(C(=O)c8c(F)ccc(NS(=O)(=O)N9CC[C@@H](F)C9)c8F)c7c6)cc5)CC4)CC3)cc2F)C(=O)N1 [Compound 340]", "READOUT_TYPE": "Dmax", "REPORTED_MEASUREMENT": "35 to 70%"}
{"MOLECULE": "O=C1CC[C@H](N2Cc3cc(C4CCN(CC5CCN(c6ccc(-c7cnc8[nH]cc(C(=O)c9c(F)ccc(NS(=O)(=O)CC%10CC%10)c9F)c8c7)cc6)CC5)CC4)ccc3C2=O)C(=O)N1 [Compound 206]", "READOUT_TYPE": "Dmax", "REPORTED_MEASUREMENT": "35 to 70%"}
{"MOLECULE": "O=C1CC[C@H](NC(=O)c2ccc(C3CCN(CC4CCN(c5ncc(-c6cnc7[nH]cc(C(=O)c8c(F)ccc(NS(=O)(=O)N9CC[C@@H](F)C9)c8F)c7c6)cn5)CC4)CC3)cc2F)C(=O)N1 [Compound 375]", "READOUT_TYPE": "Dmax", "REPORTED_MEASUREMENT": "35 to 70%"}
{"MOLECULE": "CCCS(=O)(=O)Nc1ccc(F)c(C(=O)c2c[nH]c3ncc(-c4ccc(N5CCC(CN6CCN(c7ccc8c(c7)CN([C@H]7CCC(=O)NC7=O)C8=O)CC6)CC5)cc4)cc23)c1F [Compound 245]", "READOUT_TYPE": "Dmax", "REPORTED_MEASUREMENT": "> 70%"}
{"MOLECULE": "O=C1CCC(N2Cc3cc(N4CCC(CC5CCN(c6ccc(-c7cnc8[nH]cc(C(=O)c9c(F)ccc(NS(=O)(=O)N%10CC[C@@H](F)C%10)c9F)c8c7)cc6)CC5)CC4)ccc3C2=O)C(=O)N1 (stereo partly shown) [Compound 181]", "READOUT_TYPE": "Dmax", "REPORTED_MEASUREMENT": "35 to 70%"}
{"MOLECULE": "O=C1CCN(c2ccc(N3CCC(CN4CC5(C4)CN(c4ccc(-c6cnc7[nH]cc(C(=O)c8c(F)ccc(NS(=O)(=O)N9CC[C@@H](F)C9)c8F)c7c6)cc4)C5)CC3)cc2F)C(=O)N1 [Compound 156]", "READOUT_TYPE": "Dmax", "REPORTED_MEASUREMENT": "> 70%"}
{"MOLECULE": "O=C1CCC(c2ccc(C3CCN(CC4CCN(c5ccc(-c6cnc7[nH]cc(C(=O)c8c(F)ccc(NS(=O)(=O)N9CC[C@@H](F)C9)c8F)c7c6)cc5)CC4)CC3)cc2)C(=O)N1 (stereo partly shown) [Compound 189]", "READOUT_TYPE": "Dmax", "REPORTED_MEASUREMENT": "35 to 70%"}
{"MOLECULE": "O=C1CC[C@@H](NC(=O)c2ccc(N3CCN(CCc4ccc(-c5cnc6[nH]cc(C(=O)c7c(F)ccc(NS(=O)(=O)N8CC[C@@H](F)C8)c7F)c6c5)cc4)CC3)cc2F)C(=O)N1 [Compound 28]", "READOUT_TYPE": "Dmax", "REPORTED_MEASUREMENT": "35 to 70%"}
{"MOLECULE": "O=C1CCC(N2Cc3cc(N4CCC(CN5C[C@H]6CCN(c7ccc(-c8cnc9[nH]cc(C(=O)c%10c(F)ccc(NS(=O)(=O)N%11CC[C@@H](F)C%11)c%10F)c9c8)cc7)C[C@H]6C5)CC4)ccc3C2=O)C(=O)N1 (stereo partly shown) [Compound 3]", "READOUT_TYPE": "Dmax", "REPORTED_MEASUREMENT": "> 70%"}
{"MOLECULE": "O=C1CCC(N2Cc3cc(C4CCN(CC5CN(c6ccc(-c7cnc8[nH]cc(C(=O)c9c(F)ccc(NS(=O)(=O)N%10CC[C@@H](F)C%10)c9F)c8c7)cc6)C5)CC4)ccc3C2=O)C(=O)N1 (stereo partly shown) [Compound 198]", "READOUT_TYPE": "Dmax", "REPORTED_MEASUREMENT": "> 70%"}
{"MOLECULE": "O=C1CCC(N2Cc3cc(N4CC(CN5CCN(C6(c7ccc(-c8cnc9[nH]cc(C(=O)c%10c(F)ccc(NS(=O)(=O)N%11CC[C@@H](F)C%11)c%10F)c9c8)cc7)CC6)CC5)C4)ccc3C2=O)C(=O)N1 (stereo partly shown) [Compound 200]", "READOUT_TYPE": "Dmax", "REPORTED_MEASUREMENT": "35 to 70%"}
{"MOLECULE": "O=C1CCN(c2ccc(C3CCN(CC4CCN(c5ccc(-c6cnc7[nH]cc(C(=O)c8c(F)ccc(NS(=O)(=O)N9CC[C@@H](F)C9)c8F)c7c6)cc5)CC4)CC3)cc2F)C(=O)N1 [Compound 140]", "READOUT_TYPE": "Dmax", "REPORTED_MEASUREMENT": "35 to 70%"}
{"MOLECULE": "O=C1CCC(N2Cc3cc(N4CC(CN5CCC(Cc6ncc(-c7cnc8[nH]cc(C(=O)c9c(F)ccc(NS(=O)(=O)N%10CC[C@@H](F)C%10)c9F)c8c7)cn6)CC5)C4)ccc3C2=O)C(=O)N1 (stereo partly shown) [Compound 194]", "READOUT_TYPE": "Dmax", "REPORTED_MEASUREMENT": "> 70%"}
{"MOLECULE": "COc1cc(-c2cnc3[nH]cc(C(=O)c4c(F)ccc(NS(=O)(=O)N5CC[C@@H](F)C5)c4F)c3c2)ccc1N1CCC(CN2CCC(c3ccc4c(c3)CN([C@H]3CCC(=O)NC3=O)C4=O)CC2)CC1 [Compound 256]", "READOUT_TYPE": "Dmax", "REPORTED_MEASUREMENT": "> 70%"}
{"MOLECULE": "O=C1CC[C@@H](N2Cc3cc(N4CC5(CN(CC6CCN(c7ccc(-c8cnc9[nH]cc(C(=O)c%10c(F)ccc(NS(=O)(=O)N%11CC[C@@H](F)C%11)c%10F)c9c8)cc7)CC6)C5)C4)ccc3C2=O)C(=O)N1 [Compound 222]", "READOUT_TYPE": "Dmax", "REPORTED_MEASUREMENT": "> 70%"}
{"MOLECULE": "O=C1CCC(N2Cc3cc(C4CCN(CCc5ccc(-c6cnc7[nH]cc(C(=O)c8c(F)ccc(NS(=O)(=O)N9CC[C@@H](F)C9)c8F)c7c6)cc5)[C@@H](CO)C4)ccc3C2=O)C(=O)N1 (stereo partly shown) [Compound 150]", "READOUT_TYPE": "Dmax", "REPORTED_MEASUREMENT": "> 70%"}
